Target: BACE1 (Homo sapiens (Human), UniProt P56817)
Sequence (P56817 46-501): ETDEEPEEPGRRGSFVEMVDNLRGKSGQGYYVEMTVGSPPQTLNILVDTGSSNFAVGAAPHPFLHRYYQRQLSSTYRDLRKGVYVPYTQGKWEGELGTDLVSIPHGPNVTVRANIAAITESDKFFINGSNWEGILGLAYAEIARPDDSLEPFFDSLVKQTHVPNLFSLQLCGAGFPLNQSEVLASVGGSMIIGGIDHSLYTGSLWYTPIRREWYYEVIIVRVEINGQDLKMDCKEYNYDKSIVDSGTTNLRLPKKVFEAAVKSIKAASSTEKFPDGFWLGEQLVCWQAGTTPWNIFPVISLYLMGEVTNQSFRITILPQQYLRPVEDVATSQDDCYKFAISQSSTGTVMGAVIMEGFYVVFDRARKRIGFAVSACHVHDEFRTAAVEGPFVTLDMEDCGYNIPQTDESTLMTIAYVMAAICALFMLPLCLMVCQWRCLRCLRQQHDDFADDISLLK
Test: Activity assay: inhibitory activity against the enzyme BACE1
Assay type: biochemical
Conditions: 10 doses, 3-fold serial dilution starting from 10 μmol/L, singlet
Field 'label' (enum: Fulfilled / Not fulfilled). Set to Fulfilled when IC50 is strictly under 200 nM; else Not fulfilled.

The examples below pair each entry with its known result.
| given-smiles | class-name |
| --- | --- |
| COc1cnc(C(=O)Nc2cccc([C@]34CO[C@@H](C)C[C@@]3(F)CSC(N)=N4)c2)cn1 | Fulfilled |
| C[C@H]1C[C@@]2(F)CSC(N)=N[C@@]2(c2cc(NC(=O)c3ccc(Cl)cn3)ccc2F)CO1 | Fulfilled |
| C[C@H]1C[C@@]2(F)CSC(N)=N[C@@]2(c2cc(N)ccc2F)CO1 | Not fulfilled |
| Cc1cnc(C(=O)Nc2cccc([C@]34CO[C@@H](C)C[C@@]3(F)CSC(N)=N4)c2)cn1 | Not fulfilled |

Asked: Is the reported IC50 for COc1cnc(C(=O)Nc2ccc(F)c([C@]34CO[C@@H](C)C[C@@]3(F)CSC(N)=N4)c2)cn1 strictly below 200 nM?
Given back: Fulfilled
